Values were extracted from PubChem BioAssay (NCI).

Tested on: OVCAR-3 ovarian
protocol-notes: NCI-60 one-dose screen, 48 h
protocol-conditions: 10 µM unless noted
The panel holds about 83,000 compounds, 20% with a hit somewhere; the sample as a whole holds those more often. Calls of active or inactive are those of the source. How the source made its calls: active means growth percent below 10; inactive means the rest.
Your answer must be one of the following: active, inactive

Record excerpt, results attached:
- smiles-representation: "C=CCn1c(CN2CCN(c3cc4c(cc3F)c(=O)c(C(=O)O)cn4C3CC3)CC2)n[nH]c1=S"
  cat: "inactive"
- smiles-representation: "COc1ccc(-c2nnc(N3CCN(C(=O)CN4CCN(c5ccc(OC)cc5)CC4)CC3)nc2-c2ccc(OC)cc2)cc1"
  cat: "active"
- smiles-representation: "C[C@H]1[C@H](C)CC[C@]2(C(=O)OCCCC[P+](c3ccccc3)(c3ccccc3)c3ccccc3)CC[C@]3(C)C(=CC[C@@H]4[C@@]5(C)CC[C@H](OC(=O)C(Cl)Cl)C(C)(C)[C@@H]5CC[C@]43C)[C@H]12"
  cat: "active"

Now for another entry.
Name the outcome recorded for CCCCCOC(=O)c1ccccc1O in the assay.
inactive
